assay info: RPMI8226 myeloma cell viability, profiling panel, resazurin fluorescence, basal, 24 h, PK04 Diversity Set (AID 1180);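 note: RPMI8826 multiple myeloma cell line at 5000 cells per well; test concentration not given here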
condition label: higher = more signal
Each entry falls into one class according to its z-score; the ranges are LOW: < -1; MEDIUM: ≥ -1 and < 0.2; HIGH: ≥ 0.2

Worked set:
[
  {
    "molecule": "CN(C)CCCNC(=O)[C@@H]1c2ccccc2C(=O)N(Cc2ccccc2Cl)[C@H]1c1ccc(CO)cc1",
    "category": "MEDIUM"
  },
  {
    "molecule": "Cc1ccc(S[C@]2(C(=O)NCC(F)(F)F)CC(=O)N(Cc3ccccc3C(F)(F)F)[C@@H]2c2ccc(CO)cc2I)cc1",
    "category": "LOW"
  }
]

Category lookup for the molecule COC(=O)[C@@]1(Cc2ccc(F)cc2)[C@H]2c3cc(C(=O)N4CCCC4)n(CCN4CNCC4=O)c3C[C@H]2CN1C(=O)c1ccccc1
MEDIUM

----------
assay info: CREB reporter modulators under forskolin, primary screen, cell-based, PC12, CRE-LacZ reporter, forskolin-stimulated (AID 1146);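 note: PC12 cells with 6xCRE LacZ reporter stimulated by forskolin 10 µM; beta-galactosidase reporter signal reflecting CREB driven transcription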
condition label: luminescence, 4.5 h, higher = more signal, called active from +8 up or from −8 down
property name: z-score
Answer field: number only, no words.

Some solved cases for reference:
[
  {
    "compound": "C=CCOC(=O)[C@H]1[C@@H]2C(=O)O[C@@H](c3ccccc3)[C@@H](c3ccccc3)N2[C@@H](c2ccc(OCCOC(=O)[C@H]3C[C@H]4C(=O)N[C@@H](CC(C)C)C(=O)N4[C@H]3c3cccc(OCCO)c3)cc2)[C@]12C(=O)Nc1ccc(I)cc12",
    "z-score": -0.368
  },
  {
    "compound": "Cn1cccc1C(O)C1C=CC2C(=O)NC(=O)C2N1Nc1ccc(Cl)cc1Cl (stereo not drawn)",
    "z-score": 2.09
  }
]

So for C=CCNC(=O)[C@H]1[C@@H]2C(=O)O[C@@H](c3ccccc3)[C@@H](c3ccccc3)N2[C@@H](c2ccc(O)cc2)[C@]12C(=O)N(C(=O)OCCOC)c1ccccc12 , the logged z-score turned out to be 5.62

----------
Consider the following molecules and their measured composite z-score readings.
Test system: Fibrinogen (Alexa647-labelled)
assay info: fibrinogen binders on compound microarrays, profiling panel, artefact control for SMM control-protein annotation, biochemical, small-molecule microarray, 635/667 nm fluorescence (AID 1131);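 note: z-score merges 667 nm fluorescence with per-spot signal-to-noise over triplicate slides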
condition label: fibrinogen-A647 binding fluorescence, higher = more signal

Some solved cases for reference:
[
  {
    "molecule": "Cc1cc(C)c(C(O)C2C=CC3C(=O)N(c4ccccc4)C(=O)C3N2Nc2ccc(C(C)C)cc2)c(C)c1 (configuration not stated)",
    "property name": "composite z-score",
    "result": 1.02
  },
  {
    "molecule": "COc1ccc(CCNC(=O)[C@@]2(Sc3ccc(C)cc3)CC(=O)N(C3Cc4ccccc4C3)[C@@H]2c2ccc(CO)cc2)cc1",
    "property name": "composite z-score",
    "result": 0.434
  },
  {
    "molecule": "COCCOC(=O)N1C(=O)[C@@]2(c3cc(C#CC4=CCCCC4)ccc31)[C@H](c1ccc(OCCO)cc1)N1[C@H](c3ccccc3)[C@H](c3ccccc3)OC(=O)[C@H]1[C@@H]2C(=O)NC[C@H](O)c1ccccc1",
    "property name": "composite z-score",
    "result": 0.295
  },
  {
    "molecule": "O=C(CS)NCCCCCNC(=O)[C@@H]1C[C@@H]2C(=O)N3CCC[C@H]3C(=O)N2[C@@H]1c1cccc(OCCO)c1",
    "property name": "composite z-score",
    "result": -0.561
  },
  {
    "molecule": "CCCCC(=C=CC[C@@H](O)c1ccccc1OCCO)C[C@@H](O)COCc1ccccc1",
    "property name": "composite z-score",
    "result": 0.479
  }
]

So for COc1cc(OC)c(C(O)C2C=CC3C(=O)N(C)C(=O)C3N2NC(=O)OC(C)(C)C)cc1Br (configuration not stated) , the logged composite z-score turned out to be 1.03

So for C=C(/C(=C/C[C@@H](OC(C)=O)c1cccc(OCCO)c1)c1cc(C(=O)OC)ccc1OC)C(C)C , the logged composite z-score turned out to be -0.75

----------
Consider the following molecules and their measured composite z-score readings.
assay info: small-molecule binders of probe aLefty1, primary screen, biochemical, small-molecule microarray, 635/667 nm fluorescence (AID 1153);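 note: score merges spot fluorescence with signal-to-noise ratio from the scanned slide images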
condition label: higher = more signal

Some solved cases for reference:
[
  {
    "given smiles": "COc1ccc(CCN2C(=O)[C@@]3(Cc4ccccc42)c2ccccc2C(=O)N(Cc2ccccc2OC)[C@H]3c2ccc(CO)cc2)cc1",
    "result": 0.595
  },
  {
    "given smiles": "CCOC(=O)C[C@H]1[C@H](OC(=O)c2cc3ccccc3oc2=O)[C@@H](NC(=O)Cc2ccc(OC)cc2)c2cc(OCCCO)ccc2N1C(=O)c1ccc2ccccc2n1",
    "result": -0.0046
  },
  {
    "given smiles": "Cc1ccc(S[C@]2(C(=O)NCC(F)(F)F)CC(=O)N(Cc3ccccc3C(F)(F)F)[C@@H]2c2ccc(CO)cc2I)cc1",
    "result": -0.135
  },
  {
    "given smiles": "NCCCCCCNC(=O)[C@@H]1C[C@@H]2C(=O)N[C@@H](CCCCN)C(=O)N2[C@@H]1c1cccc(OCCO)c1",
    "result": 0.784
  },
  {
    "given smiles": "COCC1=C2[C@@H](CCc3ccccc3)OB(O)C[C@@H]2[C@@H]2C(=O)C=CC(=O)[C@@H]2C1",
    "result": -0.0386
  }
]

So for COCCOC(=O)N1C(=O)[C@@]2(c3cc(C#Cc4ccc(OC)cc4)ccc31)[C@H](c1ccc(O)cc1)N1[C@H](c3ccccc3)[C@H](c3ccccc3)OC(=O)[C@H]1[C@@H]2C(=O)N1CCCCCCC1 , the logged composite z-score turned out to be 2.12

So for CCOC(=O)C[C@H]1[C@H](OC(=O)c2cc3ccccc3oc2=O)[C@@H](NC(=O)c2ccc(-c3ccccc3)cc2)c2cc(OCCCO)ccc2N1C(=O)c1ccc2ccccc2n1 , the logged composite z-score turned out to be 0.132

----------
assay info: P. aeruginosa biofilm formation inhibitors, primary screen, PAO1 strain, BacTiter-Glo luminescence, LB-PBS (AID 1144)
condition label: 12 h, higher = more signal
property name: z-score
Answer field: number only, no words.

[
  {
    "molecule": "COCCOC(=O)N1C(=O)[C@@]2(c3cc(C#CCC(C(=O)OC)C(=O)OC)ccc31)[C@H](C(=O)N1CCc3cc(OC)c(OC)cc3C1)[C@H]1C(=O)O[C@H](c3ccccc3)[C@H](c3ccccc3)N1[C@@H]2c1ccc(OCCO)cc1",
    "numeric result": -0.442
  },
  {
    "molecule": "O=C1OCC=C[C@H]2OC34C=CCN(Cc5ccccc5)C(=O)[C@H]3N(CCCCCCO)C(=O)[C@@H]4[C@@H]12 (stereo partly specified)",
    "numeric result": -0.955
  },
  {
    "molecule": "O=C1OCC=C[C@H]2OC34C=CCN(c5ccc(Cl)cc5)C(=O)[C@H]3N(CCO)C(=O)[C@@H]4[C@@H]12 (stereo partly specified)",
    "numeric result": 3.17
  },
  {
    "molecule": "C=CCC(OC(C)=O)[C@@H]1[C@@H](N(Cc2cc3ccccc3o2)C(=O)c2ccc(-c3ccccc3)cc2)c2cc(OCCCO)ccc2N1C(=O)c1ccc2ccccc2c1 (stereo partly specified)",
    "numeric result": 0.2
  },
  {
    "molecule": "CCOC(=O)[C@H]1[C@@H]2C(=O)N3CCC[C@H]3[C@H](O[Si](C(C)C)(C(C)C)C(C)C)[C@H]2C=C2CCN(S(=O)(=O)c3ccc(C)cc3)C[C@H]21",
    "numeric result": 0.426
  }
]

# input for lookup
So for CC(C)C(=C=CC[C@H](O)c1ccc(OCCO)cc1)C[C@H](O)c1ccccn1 , the logged z-score turned out to be -0.576

----------
assay info: small-molecule microarray binders of probe aXIP, primary screen, biochemical, NeuroSMM set, 635/667 nm fluorescence (AID 1119);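 note: probe is the protein aXip251-270 applied at 1 µg/mL to compound-printed slides; binding of probe to printed compounds measured as 667 nm fluorescence plus signal to noise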
condition label: higher = more signal, called active from +8 up or from −8 down
# binarize composite Z-score: threshold 0.4 inclusive, high side class 1, low side class 0

[
  {
    "compound": "O=C1OCCC/C=C\\[C@H]2OC34C=CCN(CCN5CCOCC5)C(=O)[C@H]3N(CCCCCCO)C(=O)[C@@H]4C12 (some centres not stated)",
    "category": "class 1"
  },
  {
    "compound": "COCCOC(=O)N1C(=O)[C@@]2(c3cc(C#CC4=CCCCC4)ccc31)[C@H](c1ccc(OCCO)cc1)N1[C@H](c3ccccc3)[C@H](c3ccccc3)OC(=O)[C@H]1[C@@H]2C(=O)N1CCN(c2ncccn2)CC1",
    "category": "class 0"
  },
  {
    "compound": "COc1ccc(-c2nc(-c3ccccc3)c3c(c2C)CO[Si]3(C(C)C)C(C)C)cn1",
    "category": "class 1"
  },
  {
    "compound": "O=C1C[C@@](C(=O)NCCN2CCOCC2)(c2ccc([N+](=O)[O-])cc2)[C@@H](c2ccc(CO)cc2I)N1C1CCCCC1",
    "category": "class 0"
  },
  {
    "compound": "[N-]=[N+]=Nc1ccccc1[C@H]1OC(c2ccc(OCCCO)cc2)=N[C@@]1(Cc1ccccc1)C(=O)N1CCCCC1",
    "category": "class 1"
  }
]

Now for a further compound.
Form field: composite Z-score at least 0.4? Entry: C=C(/C(=C/C[C@H](OC(C)=O)c1cccc(OCCO)c1)c1cnc2ccccc2c1)C(C)C
class 1
